- Protocol description: Quantitative High-Throughput drug screen in 47 multiple myeloma cell lines against the NCATS MIPE library collection: EJM_DSMZ cell viability assay (AID 1918926; further: nearly all actives have a fitted effect of over 30% in size)
- Measurement setup: EJM myeloma cell viability, CellTiter-Glo ATP, 48 h; series mostly up to 45.8 µM
Results filed as inconclusive are left out. The source made the active and inactive calls. The call rests on the fitted dose curve; in most records, active means well fitted cell-killing curve with a large enough effect; inconclusive means small, poorly fitted or top-dose-only effect, or effect the other way; inactive means no such curve, though single readings can be large or run the other way.
Possible outcomes: active, inactive

[
  {
    "Compound": "COC(=O)Nc1ccc(-c2nc(N3CCOCC3)c3cnn(C4CCN(C(=O)OC)CC4)c3n2)cc1",
    "Class assignment": "active"
  },
  {
    "Compound": "Clc1ccc(COC(Cn2ccnc2)c2ccc(Cl)cc2Cl)c(Cl)c1 (stereo not drawn)",
    "Class assignment": "active"
  },
  {
    "Compound": "NC[C@H]1O[C@H](O[C@@H]2[C@@H](O)[C@@H](O[C@H]3O[C@H](CO)[C@@H](O)[C@H](N)[C@@H]3O)[C@H](N)C[C@@H]2N)[C@H](O)[C@@H](O)[C@H]1O",
    "Class assignment": "inactive"
  },
  {
    "Compound": "CCC[C@H](N[C@@H](C)C(=O)N1[C@@H]2CCCC[C@H]2C[C@H]1C(=O)O)C(=O)OCC",
    "Class assignment": "inactive"
  },
  {
    "Compound": "N#Cc1c(N(CC(=O)O)CC(=O)O)sc(C(=O)O)c1CC(=O)O",
    "Class assignment": "inactive"
  },
  {
    "Compound": "CCOC(=O)[C@H](CCc1ccccc1)N[C@@H](C)C(=O)N1CCCC1C(=O)O (stereo partly drawn)",
    "Class assignment": "inactive"
  },
  {
    "Compound": "CN[C@@H](C)[C@H]1[C@H](O)C[C@@]2(C)[C@@H]3CC[C@H]4C(C)(C)[C@@H](NC)CC[C@@]45C[C@@]35CC[C@]12C",
    "Class assignment": "inactive"
  },
  {
    "Compound": "COc1cc2ncn(-c3cc(OCc4ccccc4S(C)(=O)=O)c(C#N)s3)c2cc1OC",
    "Class assignment": "active"
  }
]

* * *

- Protocol description: Cell Proliferation Assay against the TMD8 Cell Line (AID 651645);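 further: cells exposed to compound for 48 h before reading; 100% = DMSO and 0% = 9.2 µM bortezomib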
- Measurement setup: TMD8 DLBCL cell line proliferation/viability; at 46.1 µM (top of the series)
Reported viability (% of control) values for the following molecules.
Measurement label: viability (% of control) (%)

[
  {
    "Structure smiles string": "Cn1cc(-c2ccc3nnc(Sc4ccc5ncccc5c4)n3n2)cn1",
    "Measurement label": "viability (% of control)",
    "Result unit": "%",
    "Measured": 74.4
  },
  {
    "Structure smiles string": "CCN(CC)CCCCNc1nc2cc(Cl)c(Cl)cc2nc1-c1ccc(-c2cccs2)s1",
    "Measurement label": "viability (% of control)",
    "Result unit": "%",
    "Measured": 1.61
  },
  {
    "Structure smiles string": "CCC(=O)N1CCN(c2ccc(-n3c(=O)ccc4cnc5ccc(-c6cnc7ccccc7c6)cc5c43)cc2C(F)(F)F)CC1",
    "Measurement label": "viability (% of control)",
    "Result unit": "%",
    "Measured": 3.32
  },
  {
    "Structure smiles string": "CCCCn1c(=O)n(Cc2ccccc2F)c(=O)c2[nH]c(Cc3ccc(NC(C)=O)cc3)nc21",
    "Measurement label": "viability (% of control)",
    "Result unit": "%",
    "Measured": 5.19
  },
  {
    "Structure smiles string": "CC(C)(C)c1[nH]cnc1C=c1[nH]c(=O)c(=Cc2ccccc2)[nH]c1=O",
    "Measurement label": "viability (% of control)",
    "Result unit": "%",
    "Measured": 1.63
  },
  {
    "Structure smiles string": "Cc1ccc(C(=O)N(CCCN)[C@@H](c2nc3cc(Cl)ccc3c(=O)n2Cc2ccccc2)C(C)C)cc1",
    "Measurement label": "viability (% of control)",
    "Result unit": "%",
    "Measured": 0.587
  },
  {
    "Structure smiles string": "CN(C)CCCNC(=O)c1ccc(-c2cc(O)c3ncccc3c2)cc1",
    "Measurement label": "viability (% of control)",
    "Result unit": "%",
    "Measured": 2.8
  },
  {
    "Structure smiles string": "Cc1c(C(=O)Nc2ccc(N3C[C@@H](C)O[C@@H](C)C3)nc2)cccc1-c1ccc(OC(F)(F)F)cc1",
    "Measurement label": "viability (% of control)",
    "Result unit": "%",
    "Measured": 48.4
  },
  {
    "Structure smiles string": "O=C(O)c1ccc(O)c2ncc(N3CCOCC3)cc12",
    "Measurement label": "viability (% of control)",
    "Result unit": "%",
    "Measured": 77.1
  }
]

* * *

- Tested on: OV90
- Protocol description: Primary qHTS to identify gynecologic anti-cancer compounds using libraries of approved drugs and bioactive compounds (AID 1345084); further: nearly all actives have a fitted effect of over 55% in size
- Measurement setup: Gynecologic cancer cell panel viability, ATPlite luminescence, 48 h; series mostly up to 57.5 µM
- Source text: National Center for Advancing Translational Sciences [NCATS] Assay Overview: Chemotherapeutic drug responses vary from cancer to cancer and from patient to patient. […] ATPlite is a luminescence based assay reliant on the conversion of a luciferase substrate to light in the presence of ATP. As a cytotoxic compound will suppress growth and decrease the number of cells, the concentration of ATP will decrease, and less light signal will be detected in the well. […]
Records with an inconclusive call do not appear. Active and inactive are the calls of the source. Calls come from the whole dose curve; as a rule, active = well fitted cell-killing curve with a large enough effect; inconclusive = small, poorly fitted or top-dose-only effect, or effect the other way; inactive = flat fitted curve, though single readings scatter.
Possible outcomes: active, inactive

[
  {
    "Compound": "COc1ccc(-c2nc3ccc(C4=NNC(=O)CC4C)cc3[nH]2)cc1 (stereo not given)",
    "Class assignment": "inactive"
  },
  {
    "Compound": "Cc1nc2c([nH]1)CCN(C(=O)c1ccc(NC(=O)c3ccccc3-c3ccccc3)cc1)c1ccccc1-2",
    "Class assignment": "inactive"
  },
  {
    "Compound": "Cc1cc(C(C)Nc2ccccc2)c2nc(N3CCOCC3)cc(=O)n2c1 (stereo not given)",
    "Class assignment": "inactive"
  },
  {
    "Compound": "COc1cc2ncnc(Nc3cc(Br)c(O)c(Br)c3)c2cc1OC",
    "Class assignment": "inactive"
  },
  {
    "Compound": "CN(C)CCOc1cc(-c2cn[nH]c2)ccc1NC(=O)C1COc2ccccc2O1 (stereo not given)",
    "Class assignment": "inactive"
  },
  {
    "Compound": "Nc1[nH]nc2nnc(-c3c(-c4ccccc4)nn4ccccc34)cc12",
    "Class assignment": "inactive"
  },
  {
    "Compound": "Cc1cnc(-c2cc(N3CCN(C(=O)CCS(C)(=O)=O)CC3)ncc2Cl)c(C)c1",
    "Class assignment": "inactive"
  },
  {
    "Compound": "CNC(=O)c1c(-c2ccc(F)cc2)oc2cc(N(CCO)S(C)(=O)=O)c(C3CC3)cc12",
    "Class assignment": "inactive"
  },
  {
    "Compound": "CC1(C)CC(=O)c2c(C(F)(F)F)nn(-c3ccc(C(N)=O)c(NC4CCC(O)CC4)c3)c2C1 (stereo not given)",
    "Class assignment": "active"
  },
  {
    "Compound": "Cc1ccc2c(c1)c1c(n2CCc2ccc(C)nc2)CCN(C)C1",
    "Class assignment": "inactive"
  }
]

* * *

- Protocol description: Quantitative High-Throughput drug screen in 47 multiple myeloma cell lines against the NCATS MIPE library collection: OCIMY5_PLB cell viability assay (AID 1918988); further: nearly all actives have a fitted effect of over 65% in size; further: potency means the concentration at half of the fitted maximal effect
- Measurement setup: OCI-MY5 myeloma viability, ATP luminescence, 48 h; series mostly up to 45.8 µM
Inconclusive results are not listed. Activity calls are given as the source filed them. The call rests on the fitted dose curve; in most records, active means well fitted cell-killing curve with a large enough effect; inconclusive means small, poorly fitted or top-dose-only effect, or effect the other way; inactive means no such curve, though single readings can be large or run the other way.

[
  {
    "Molecule": "COc1ccc(-c2ccc3ncc4c(c3c2)n(-c2ccc(N3CCNCC3)c(C(F)(F)F)c2)c(=O)n4C)cn1",
    "Potency": "0.0469 µM (active)"
  },
  {
    "Molecule": "CC(C)C[C@@H](C(=O)N[C@H](C(=O)OC1CCCC1)c1ccccc1)[C@H](O)C(=O)NO",
    "Potency": "20.9 µM (active)"
  },
  {
    "Molecule": "O=S(=O)(O)c1ccc2cc(N=Nc3cc(S(=O)(=O)O)c4cccnc4c3O)ccc2c1",
    "Potency": "9.35 µM (active)"
  },
  {
    "Molecule": "CC[C@H](CC#N)OC(=O)N[C@@H](C)c1cccc(NC(=O)Nc2ccc(-c3cnco3)c(OC)c2)c1",
    "Potency": "3.72 µM (active)"
  },
  {
    "Molecule": "Cc1cnc(-c2cc(N3CCN(C(=O)CCS(C)(=O)=O)CC3)ncc2Cl)c(C)c1",
    "Potency": "2.96 µM (active)"
  },
  {
    "Molecule": "O=C1NC(=O)C(c2cnc3ccccn23)=C1c1cn2c3c(cccc13)CN(C(=O)N1CCOCC1)CC2",
    "Potency": "0.372 µM (active)"
  },
  {
    "Molecule": "COC(=O)Nc1ccc(-c2nc(N3CCOCC3)c3cnn(C4CCN(C(=O)OC)CC4)c3n2)cc1",
    "Potency": "1.18 µM (active)"
  },
  {
    "Molecule": "CCc1cccc(CC)c1NC(=O)N1Cc2[nH]nc(NC(=O)c3ccc(N4CCN(C)CC4)cc3)c2C1",
    "Potency": "1.66 µM (active)"
  },
  {
    "Molecule": "N=C1SC(=Cc2ccc(-c3ccc4c(c3)C(=O)NC4=O)o2)C(=O)N1c1ccc(Br)cc1",
    "Potency": "2.96 µM (active)"
  },
  {
    "Molecule": "Cn1c(=O)c(-c2c(Cl)cccc2Cl)cc2cnc(Nc3cccc(C(=O)O)c3)nc21",
    "Potency": "13.2 µM (active)"
  },
  {
    "Molecule": "CC(C)C[C@H](NC(=O)c1cc2ccccc2s1)C(=O)N1CCN(C(=O)[C@H](CO)NS(=O)(=O)c2ccc(Cl)cc2Cl)CC1",
    "Potency": "20.9 µM (active)"
  },
  {
    "Molecule": "O=C1CN2Cc3c(ccc(Cl)c3Cl)N=C2N1",
    "Potency": "23.5 µM (active)"
  },
  {
    "Molecule": "O=C1Nc2ccc(I)cc2C1=Cc1cc(Br)c(O)c(Br)c1",
    "Potency": "8.33 µM (active)"
  },
  {
    "Molecule": "CCOC(=O)c1c(CSc2ccccc2)n(C)c2cc(Br)c(O)c(CN(C)C)c12",
    "Potency": "16.6 µM (active)"
  },
  {
    "Molecule": "CCCCCCCCCCCCCCCC(=O)O[C@H]1[C@@H](O)[C@@H](O)[C@@H]([C@H](NC(=O)[C@@H]2C[C@@H](CCC)CN2C)[C@H](C)Cl)O[C@@H]1SC",
    "Potency": "inactive"
  },
  {
    "Molecule": "Cc1nc(C(=O)NCC(=O)O)c(O)c2ccc(Oc3ccccc3)cc12",
    "Potency": "inactive"
  },
  {
    "Molecule": "CNC1CCC(N(Cc2cccc(-c3ccncc3)c2)C(=O)c2sc3ccccc3c2Cl)CC1 (stereo not drawn)",
    "Potency": "18.7 µM (active)"
  },
  {
    "Molecule": "O=c1[nH]nc(OCCCc2ccc(Cl)cc2)c(NCc2cccnc2)c1Br",
    "Potency": "18.7 µM (active)"
  }
]

Where do the numbers come from? From PubChem BioAssay (NCATS).
